Tested on: horseweed (Erigeron canadensis)
method-summary: Test A1 postemergence, horseweed
Assay type: in vivo
condition: Postemergence, 31 g ai/ha; 0 to 100 scale (0 no effect, 100 complete control); 10 days
Text: […]
// reported Plant response rating, Horseweed per item
Respond using a number only.

# compound, Plant response rating, Horseweed
records = [
    ("Cc1cc(C)c(N(COC(=O)C(C)(C)C)S(=O)(=O)C(F)(F)F)cc1C(=O)N1CCOCC1 [Compound 362]", 90),
    ("COC(=O)OCN(c1cc(C2=NOC3CCCC23)c(C)cc1C)S(=O)(=O)C(F)(F)F (centres unmarked) [Compound 315]", 20),
    ("CCOC(=O)N(c1cc(C(=O)N2CCCCC2)c(C)c(C)c1C)S(=O)(=O)C(F)(F)F [Compound 330]", 80),
]

Kindly note: horseweed (Erigeron canadensis), Cc1cc(C)c(N(COC(=O)C(C)(C)C)S(=O)(=O)C(F)(F)F)cc1C(=O)N1CCC(c2ccccc2)CC1 [Compound 364] , Plant response rating, Horseweed value reported: 0

The compound Cc1cc(C)c(C2=NOC(OCC(C)C)C2)cc1NS(=O)(=O)C(F)(F)F (centres unmarked) [Compound 322] , when measured on horseweed (Erigeron canadensis), yielded Plant response rating, Horseweed of 0

Case Cc1c(NS(=O)(=O)C(F)(F)F)cc(C(=O)N(C)C)c(C)c1Cl [Compound 287] , horseweed (Erigeron canadensis), Plant response rating, Horseweed recorded as 20

Item: Cc1cc(C2CC2)c(NS(=O)(=O)C(F)(F)F)cc1C1=NOC2(CCCC2)C1 [Compound 313] | System: horseweed (Erigeron canadensis) | Plant response rating, Horseweed: 0

Reading of Plant response rating, Horseweed for Cc1cc(Br)c(NS(=O)(=O)C(F)(F)F)cc1C1=NOC2(CCCC2)C1 [Compound 309] with horseweed (Erigeron canadensis): 10
